assay: Therapeutic index (TI) value as ratio of lethal dose (LD50) to the inhibitory concentration (IC50); format: cell-based; conditions: human, KB cells; read-out: TI
Threshold check on selectivity ratio: strictly below 4 is condition met; on or above 4 is condition not met.

## Task Check if selectivity ratio falls below 4 for CCCNC(P(=O)(O)O)P(=O)(O)O [(PROPYLAMINO)METHYLENEDIPHOSPHONIC ACID] .
## Result condition not met

## Task Check if selectivity ratio falls below 4 for `O=P(O)(O)C(Nc1nccc2ccccc12)P(=O)(O)O` .
## Result condition not met

## Task Check if selectivity ratio falls below 4 for O=P(O)(O)C(NC1CCCCCC1)P(=O)(O)O [INCADRONIC ACID] .
## Result condition not met

## Task Check if selectivity ratio falls below 4 for `CCCCN(CC)C(P(=O)(O)O)P(=O)(O)O` .
## Result condition not met

## Task Check if selectivity ratio falls below 4 for `O=P(O)(O)C(Nc1ccnc(O)c1)P(=O)(O)O` .
## Result condition not met

## Task Check if selectivity ratio falls below 4 for `O=P(O)(O)C(N1CCCCCC1)P(=O)(O)O` .
## Result condition not met

## Task Check if selectivity ratio falls below 4 for `O=P(O)(O)C(O)(Cc1ccccc1)P(=O)(O)O` .
## Result condition not met

## Task Check if selectivity ratio falls below 4 for `CCCCCCCCCC(O)(P(=O)(O)O)P(=O)(O)O` .
## Result condition not met

## Task Check if selectivity ratio falls below 4 for CCCCNC(P(=O)(O)O)P(=O)(O)O [(BUTYLAMINO)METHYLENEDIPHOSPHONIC ACID] .
## Result condition met

## Task Check if selectivity ratio falls below 4 for `O=P(O)(O)C(NC1CCCC1)P(=O)(O)O` .
## Result condition not met

## Task Check if selectivity ratio falls below 4 for `NCCCCC(O)(P(=O)(O)O)P(=O)(O)O` .
## Result condition met
